From: PubChem BioAssay AID686978

Experiment: qHTS for Inhibitors of human tyrosyl-DNA phosphodiesterase 1 (TDP1): qHTS in cells in absence of CPT; note: nearly all actives have a fitted effect of over 55% in size
Conditions: DT40 Tdp1-/- hTDP1 cells, no CPT, ATP luminescence, 48 h
About 64,000 (15%) of roughly 420,000 compounds were called active. Roughly 27% stayed inconclusive and do not appear here. Calls come from the whole dose curve; as a rule, active = well fitted inhibition curve with a large enough effect; inconclusive = small, poorly fitted or top-dose-only effect; inactive = flat fitted curve, though single readings scatter. A selection follows.
Pick one: active, inactive

Recorded results for 5 compounds are shown here.
>  <COMPOUND>
CC(=O)c1ccc(S(=O)(=O)NCc2nnnn2-c2ccccc2)cc1

>  <DISCRETE LABEL>
inactive

$$$$
>  <COMPOUND>
COC(=O)c1ccc(CSc2nnc(NC(C)C)s2)cc1

>  <DISCRETE LABEL>
inactive

$$$$
>  <COMPOUND>
Cc1[nH]c2ccccc2c1C(=O)COC(=O)C(C)C

>  <DISCRETE LABEL>
inactive

$$$$
>  <COMPOUND>
Cc1ccc2c(C(=O)CN3CCCC3)c(C)[nH]c2c1

>  <DISCRETE LABEL>
inactive

$$$$
>  <COMPOUND>
Cn1c(=O)sc2cc(NS(=O)(=O)c3ccc(C(C)(C)C)cc3)ccc21

>  <DISCRETE LABEL>
inactive

$$$$

Problem: Can you look up the reported call for O=C(CSc1nc2[nH]c(=O)[nH]c(=O)c2s1)Nc1cccc(F)c1 for me?
Solution: inactive

Problem: Record request — test call for Cc1nc(NCc2ccccc2)c(C(N)=O)c2c1COC(C)(C)C2
Solution: inactive

Problem: In this assay, the call recorded for Cc1[nH]c2ccccc2c1C(=O)CN1CC(C)CC(C)C1 (configuration not stated) was what?
Solution: active

Problem: Any idea what this test logged for COCCNc1nnc(SCC(=O)NNC(=O)c2ccco2)s1 ?
Solution: inactive

Problem: What call does the record list for Cc1[nH]c2ccccc2c1C(=O)CSCC(=O)O ?
Solution: inactive

Problem: Please state the recorded outcome for this compound: COC(=O)c1sc(NC(=O)COC(=O)C2CCC2)c(C(=O)OC)c1C
Solution: inactive

Problem: Outcome logged for O=C1CCC(=O)N(c2ccccc2)N1 in this assay:
Solution: inactive
